assay_notes: Pharmacokinetics of α-MG after intravenous administration to mice (automated microsampling)
Type: in vivo
condition: mouse, plasma, intravenous, 10 mg/kg, read-out: V ss

chemical_smiles	units	Vd
COc1c(O)cc2oc3cc(O)c(CC=C(C)C)c(O)c3c(=O)c2c1CC=C(C)C	L/kg	4.27

---

assay_notes: Pharmacokinetics of α-MG after oral administration to mice (automated microsampling)
Type: in vivo
condition: mouse, plasma, oral, 50 mg/kg
measurement_kind: Cmax (ng/mL)

chemical_smiles	units	test_value
COc1c(O)cc2oc3cc(O)c(CC=C(C)C)c(O)c3c(=O)c2c1CC=C(C)C	ng/mL	242

---

assay_notes: Pharmacokinetics of α-MG after intravenous administration to mice (automated microsampling)
Type: in vivo
condition: mouse, plasma, intravenous, 20 mg/kg (n = 8)

compound	AUC [ng·h/mL]
COc1c(O)cc2oc3cc(O)c(CC=C(C)C)c(O)c3c(=O)c2c1CC=C(C)C [α-MG, α-Mangostin]	10600

---

assay_notes: Pharmacokinetics of α-MG after intravenous administration to mice (automated microsampling)
Assay type: in vivo
condition: mouse, plasma, intravenous, 10 mg/kg (n = 8)
measurement_kind: AUC (ng·h/mL)

chemical_smiles	test_value
COc1c(O)cc2oc3cc(O)c(CC=C(C)C)c(O)c3c(=O)c2c1CC=C(C)C	5670

---

assay_notes: Pharmacokinetics of α-MG after intravenous administration to mice (automated microsampling)
Format: in vivo
condition: mouse, plasma, intravenous, 20 mg/kg, read-out: Terminal half-life

chemical_smiles	half-life, h
COc1c(O)cc2oc3cc(O)c(CC=C(C)C)c(O)c3c(=O)c2c1CC=C(C)C	2.88

---

assay_notes: Pharmacokinetics of α-MG after oral administration to mice (automated microsampling)
Type: in vivo
condition: mouse, plasma, oral, 10 mg/kg, read-out: Terminal half-life

compound	half-life, h
COc1c(O)cc2oc3cc(O)c(CC=C(C)C)c(O)c3c(=O)c2c1CC=C(C)C [α-MG, α-Mangostin]	2.95

---

assay_notes: Pharmacokinetics of α-MG after oral administration to mice (automated microsampling)
Type: in vivo
condition: mouse, plasma, oral, 100 mg/kg (n = 9)

chemical_smiles	AUC (ng·h/mL)
COc1c(O)cc2oc3cc(O)c(CC=C(C)C)c(O)c3c(=O)c2c1CC=C(C)C	1390
